Entries and their measured Kd follow.
Target: GDP-bound KRAS wild-type protein (Homo sapiens)
Sequence (P01116 whole entry): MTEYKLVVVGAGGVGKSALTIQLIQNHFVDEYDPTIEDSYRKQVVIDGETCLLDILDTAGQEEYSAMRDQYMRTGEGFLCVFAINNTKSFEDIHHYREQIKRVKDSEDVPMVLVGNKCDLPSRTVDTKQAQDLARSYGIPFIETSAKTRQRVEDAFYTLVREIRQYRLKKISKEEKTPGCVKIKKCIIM
Test: Binding to KRAS by surface plasmon resonance (SPR), Single Cycle Kinetics
Details: SPR, Single Cycle Kinetics, GDP-bound KRAS wild-type protein; read-out: KRAS KD
Only the number, expressed in nM, is required.

Solved cases (2 shown):
CCC[C@H]1C(=O)N[C@@H]([C@@H](C)CC)C(=O)N(C)CC(=O)N(C)[C@H]2C/C=C\CCN(C2=O)[C@@H](Cc2ccc(C(F)(F)F)cc2)C(=O)N(C)CC(=O)N[C@@H](CCc2ccc(C(F)(F)F)c(Cl)c2)C(=O)N2C[C@H](OCC)C[C@H]2C(=O)NC2(CC(C)(C)C2)C(=O)N(C)[C@@H](CC(F)(F)F)C(=O)N(C)[C@H](C(=O)N(C)C)CC(=O)N1C :: 0.96
CC[C@H](C)[C@@H]1NC(=O)[C@H](CC)N(C)C(=O)C[C@@H](C(=O)N(C)C)N(C)C(=O)[C@H](C2CCCC2)N(C)C(=O)C2(CC(C)(C)C2)NC(=O)[C@H](CC)N(C)C(=O)[C@H](CCc2cc(F)c(C(F)(F)F)c(F)c2)NC(=O)CN(C)C(=O)[C@H](Cc2ccc(C(F)(F)F)cc2)N2CC/C=C\C[C@@H](C2=O)N(C)C(=O)CN(C)C1=O :: 0.46

// switching to the query compound
Incoming: State the recorded Kd for this entry: C=CCC[C@H]1C(=O)N[C@@H]([C@@H](C)CC)C(=O)N(C)CC(=O)N(C)[C@H]2CCCCN(C2=O)[C@@H](Cc2ccc(C(F)(F)F)cc2)C(=O)N(C)CC(=O)N[C@@H](CCc2cc(F)c(C(F)(F)F)c(F)c2)C(=O)N2C[C@H](OCC)C[C@H]2C(=O)N[C@](C)(CC=C)C(=O)N(C)[C@@H](C2CCCC2)C(=O)N(C)[C@H](C(=O)N2CCOCC2)CC(=O)N1C
Outgoing: 0.096

* * *

Target: UniProtKB P01116
Test: Binding to KRAS by surface plasmon resonance (SPR), Single Cycle Kinetics
Settings: SPR, Single Cycle Kinetics, GDP-bound KRAS wild-type protein; read-out: KRAS KD
Could you please mark met for values of Kd below 1 nM and not met for values at or above it?

CCC[C@H]1C(=O)N[C@@H]([C@@H](C)CC)C(=O)N(C)CC(=O)N(C)[C@H]2C/C=C\CCN(C2=O)[C@@H](CC2CCCCC2)C(=O)N(C)CC(=O)N[C@@H](CCc2ccc(C(F)(F)F)c(OC)c2)C(=O)N2C[C@H](OCC)C[C@H]2C(=O)N(C)C2(CCC2)C(=O)N(C)[C@@H](C2CCCC2)C(=O)N(C)[C@H](C(=O)N(C)C)CC(=O)N1C :: met
CCCOC[C@H]1C(=O)N[C@@H]([C@@H](C)OCC)C(=O)N2CCC[C@H]2C(=O)N(C)[C@H]2C/C=C\CCN(C2=O)[C@@H](Cc2ccc(C)cc2)C(=O)N(C)CC(=O)N[C@@H](CCc2cc(F)c(C(F)(F)F)c(F)c2)C(=O)N2C[C@H](OCC)C[C@H]2C(=O)NC2(CC(C)(C)C2)C(=O)N(C)[C@@H](C2CCCC2)C(=O)N(C)[C@H](C(=O)N(C)CC)CC(=O)N1C :: not met
CCO[C@@H]1C[C@H]2C(=O)NC3(CC(F)(F)C3)C(=O)N(C)[C@@H](C(CC)CC)C(=O)N(C)[C@H](CC)CC(=O)N(C)[C@@H](CC)C(=O)N[C@@H]([C@@H](C)CC)C(=O)N(C)CC(=O)N(C)[C@H]3C/C=C\CCN(C3=O)[C@@H](Cc3ccc(C(F)(F)F)cc3)C(=O)N(C)CC(=O)N[C@@H](CCc3cc(F)c(C(F)(F)F)c(F)c3)C(=O)N2C1 :: not met
CCO[C@@H]1C[C@H]2C(=O)NC3(CC(F)(F)C3)C(=O)N(C)[C@@H](C3CCCC3)C(=O)N(C)[C@H](CC)CC(=O)N(C)[C@@H](CC)C(=O)N[C@@H]([C@@H](C)CC)C(=O)N(C)CC(=O)N(C)[C@H]3C/C=C\CCN(C3=O)[C@@H](Cc3ccc(C(F)(F)F)cc3)C(=O)N(C)CC(=O)N[C@@H](CCc3cc(F)c(C(F)(F)F)c(F)c3)C(=O)N2C1 :: met
CCO[C@@H]1C[C@H]2C(=O)NC3(CC(C)(C)C3)C(=O)N(C)[C@@H](C3CCCC3)C(=O)N(C)[C@H](C(=O)N(C)CC)CC(=O)N(C)[C@@H](CC)C(=O)N[C@@H]([C@@H](C)CC)C(=O)N(C)CC(=O)N(C)[C@H]3C/C=C\CCN(C3=O)[C@@H](Cc3ccc(C)cc3)C(=O)N(C)CC(=O)N[C@@H](CCc3ccc(C(F)(F)F)c(OC)c3)C(=O)N2C1 :: met
C#CCN1CC(=O)N(C)[C@H]2C/C=C\CCN(C2=O)[C@@H](Cc2ccc(C(F)(F)F)cc2)C(=O)N(C)CC(=O)N[C@@H](CCc2cc(F)c(C(F)(F)F)c(F)c2)C(=O)N2C[C@H](OCC)C[C@H]2C(=O)NC2(CC(C)(C)C2)C(=O)N(C)[C@@H](C2CCCC2)C(=O)N(C)[C@H](C(=O)N(C)C)CC(=O)N(C)[C@@H](CC)C(=O)N[C@@H]([C@@H](C)CC)C1=O :: met
CCO[C@@H]1C[C@H]2C(=O)NC3(CC(C)(C)C3)C(=O)N(C)[C@@H](C3CCCC3)C(=O)N(C)[C@H](C(=O)N(C)CC)CC(=O)N(C)[C@H]3CCC/C=C/c4ccc(cc4)C[C@@H](C(=O)N(C)CC(=O)N[C@@H](CCc4cc(F)c(C(F)(F)F)c(F)c4)C(=O)N2C1)N1CC/C=C\C[C@@H](C1=O)N(C)C(=O)CN(C)C(=O)[C@H]([C@@H](C)CC)NC3=O :: met
CCO[C@@H]1C[C@H]2C(=O)NC3(CCC3)C(=O)N(C)[C@@H](C3CCCC3)C(=O)N(CC)[C@H](C(=O)N3CCOCC3)CC(=O)N(C)[C@@H](CC)C(=O)N[C@@H]([C@@H](C)CC)C(=O)N(C)CC(=O)N(C)[C@H]3C/C=C\CCN(C3=O)[C@@H](Cc3ccc(C(F)(F)F)cc3)C(=O)N(C)CC(=O)N[C@@H](CCc3cc(F)c(C(F)(F)F)c(F)c3)C(=O)N2C1 :: not met
CCOC[C@H]1C(=O)N[C@@H]([C@@H](C)CC)C(=O)N(C)CC(=O)N(C)[C@H]2C/C=C\CCN(C2=O)[C@@H](Cc2ccc(C)cc2)C(=O)N(C)CC(=O)N[C@@H](CCc2cc(F)c(C(F)(F)F)c(F)c2)C(=O)N2C[C@H](OCC)C[C@H]2C(=O)NC2(CC(C)(C)C2)C(=O)N(C)[C@@H](C2CCCC2)C(=O)N(C)[C@H](C(=O)N(CC)CC)CC(=O)N1C :: met
CCC[C@H]1C(=O)N[C@@H](CC(C)C)C(=O)N(CC)CC(=O)N(C)[C@H]2C/C=C\CCN(C2=O)[C@@H](Cc2ccc(C)cc2)C(=O)N(C)CC(=O)N[C@@H](CCc2ccc(C(F)(F)F)c(OC)c2)C(=O)N2C[C@H](OCC)C[C@H]2C(=O)NC2(CC(C)(C)C2)C(=O)N(C)[C@@H](C2CCCC2)C(=O)N(C)[C@H](C(=O)N(C)C)CC(=O)N1C :: not met

Query molecule follows.
Incoming: Quick check: does CCO[C@@H]1C[C@H]2C(=O)NC3(CCC3)C(=O)N(C)[C@@H](C3CCCC3)C(=O)N(C)[C@H](C(=O)N3CCOCC3)CC(=O)N(C)[C@@H](CC(C)C)C(=O)N[C@@H]([C@@H](C)CC)C(=O)N3CC[C@H]3C(=O)N(C)[C@H]3CC(C)=CCN(C3=O)[C@@H](Cc3ccc(C(F)(F)F)cc3)C(=O)N(C)CC(=O)N[C@@H](CCc3cc(F)c(C(F)(F)F)c(F)c3)C(=O)N2C1 have Kd under 1 nM?
Outgoing: not met
